Where do these numbers come from? They come from ChEMBL document CHEMBL2434890.

Assay: Inhibition of TRK in human MCF7 cells after 48 hrs by ELISA
Type: cell-based

>  <STRUCTURE>
NNc1nc2ccccc2[nH]c1=O

>  <IC50 [nM]>
10.2

$$$$
>  <STRUCTURE>
CCOC(=O)Cn1c(=O)c(N/N=C/c2ccc(N(C)C)cc2)nc2ccccc21

>  <IC50 [nM]>
4.85

$$$$
>  <STRUCTURE>
COc1cccc2c1C(=O)c1c(O)c3c(c(O)c1C2=O)C[C@@](O)(C(=O)CO)C[C@@H]3O[C@H]1C[C@H](N)[C@H](O)[C@H](C)O1

>  <IC50 [nM]>
3.2

$$$$
>  <STRUCTURE>
N=c1c(O)nnc2c(=O)[nH]c3ccccc3n12

>  <IC50 [nM]>
20.2

$$$$
>  <STRUCTURE>
C=CCn1c(=O)c(N/N=C/c2ccc(N(C)C)cc2)nc2ccccc21

>  <IC50 [nM]>
2.9

$$$$

###

# reported viability at 48 h, 1000 mol ratio/TPA; entries follow
Test: Cytotoxicity against human Raji cells assessed as cell viability at 1000 mol ratio/TPA after 48 hrs by trypan blue staining method
Type: cell-based
Conditions: read-out: Activity
OBSERVABLE: viability at 48 h, 1000 mol ratio/TPA (%)

>  <COMPOUND>
C=CCn1c(=O)c(N/N=C/c2c(OC)cccc2OC)nc2ccccc21

>  <OBSERVABLE>
viability at 48 h, 1000 mol ratio/TPA

>  <MEASUREMENT_UNITS>
%

>  <MEASURED>
60

$$$$
>  <COMPOUND>
CCOC(=O)Cn1c(=O)c(N/N=C/c2c(OC)cccc2OC)nc2ccccc21

>  <OBSERVABLE>
viability at 48 h, 1000 mol ratio/TPA

>  <MEASUREMENT_UNITS>
%

>  <MEASURED>
60

$$$$
>  <COMPOUND>
CN1C(=S)NNC12Nc1ccccc1NC2=O (stereo not drawn)

>  <OBSERVABLE>
viability at 48 h, 1000 mol ratio/TPA

>  <MEASUREMENT_UNITS>
%

>  <MEASURED>
60

$$$$
>  <COMPOUND>
O=c1[nH]c2ccccc2nc1Cl

>  <OBSERVABLE>
viability at 48 h, 1000 mol ratio/TPA

>  <MEASUREMENT_UNITS>
%

>  <MEASURED>
50

$$$$
>  <COMPOUND>
O=c1[nH]c2ccccc2n2c(=O)c(O)nnc12

>  <OBSERVABLE>
viability at 48 h, 1000 mol ratio/TPA

>  <MEASUREMENT_UNITS>
%

>  <MEASURED>
60

$$$$
>  <COMPOUND>
CC1(C)CC[C@]2(C(=O)O)CC[C@]3(C)C(=CC[C@@H]4[C@@]5(C)CC[C@H](O)C(C)(C)[C@@H]5CC[C@]43C)[C@@H]2C1

>  <OBSERVABLE>
viability at 48 h, 1000 mol ratio/TPA

>  <MEASUREMENT_UNITS>
%

>  <MEASURED>
70

$$$$
>  <COMPOUND>
C=CCn1c(=O)c(N/N=C/c2ccc(N(C)C)cc2)nc2ccccc21

>  <OBSERVABLE>
viability at 48 h, 1000 mol ratio/TPA

>  <MEASUREMENT_UNITS>
%

>  <MEASURED>
60

$$$$
>  <COMPOUND>
O=C1CN2C(=NN1)C(=O)Nc1ccccc12

>  <OBSERVABLE>
viability at 48 h, 1000 mol ratio/TPA

>  <MEASUREMENT_UNITS>
%

>  <MEASURED>
60

$$$$

###

Assay: Inhibition of TRK in human MCF7 cells after 48 hrs by ELISA
Assay type: cell-based
OBSERVABLE: IC50

>  <COMPOUND>
Oc1nc2ccccc2n2cnnc12

>  <MEASURED>
Not Active

$$$$
>  <COMPOUND>
Oc1nc2ccccc2nc1O

>  <MEASURED>
Not Active

$$$$
>  <COMPOUND>
O=C(c1ccccc1)N1C(=S)NNC12Nc1ccccc1NC2=O (stereo not drawn)

>  <MEASURED>
Not Active

$$$$
